molecular target: IMP-1 (Imipenemase-1) (Serratia marcescens, UniProt P52699); assay: Enzyme inhibition assay, IMP-1; assay type: biochemical; conditions: read-out: pIC50 IMP-1 (converted)
Sequence (P52699 19-246, looked up, species assumed): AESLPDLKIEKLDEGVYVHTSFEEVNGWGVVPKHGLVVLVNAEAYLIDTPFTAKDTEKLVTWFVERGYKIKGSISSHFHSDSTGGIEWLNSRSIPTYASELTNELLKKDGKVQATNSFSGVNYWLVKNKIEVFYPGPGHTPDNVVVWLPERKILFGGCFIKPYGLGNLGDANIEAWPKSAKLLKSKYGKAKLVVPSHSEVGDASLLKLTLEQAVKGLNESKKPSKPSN
Output yes for records whose IC50 is lower than 0.3 µM, no for records at or above 0.3 µM.

# example entries with known answers
| compound | class_assignment |
| --- | --- |
| Cc1cccc2c(C3CCN(C(=O)OC(C)(C)C)CC3)c(C(=O)O)[nH]c12 [Example 105] | no |
| CNC(=O)c1ccc(-c2c(C(=O)O)[nH]c3c(C(C)C)cccc23)cc1 [Example 87] | yes |
| Cc1cccc2c(C3CCCC3)c(C(=O)O)[nH]c12 [Example 104] | no |

Qu. Item CC(C)c1cccc2c(-c3ccncc3)c(C(=O)O)[nH]c12 [Example 68] : IC50 beneath 0.3 µM, strictly?
Ans. yes

Qu. Queued: COc1ccccc1-c1c(C(=O)O)[nH]c2c(C)cccc12 [Example 20]
Ans. no

Qu. Queued: O=C(O)c1[nH]c2c(CCOc3ccccc3)cccc2c1-c1ccc(F)cc1 [Example 62]
Ans. no

Qu. Queued: Cc1cccc2c(Cc3ccc(Cl)cc3)c(C(=O)O)[nH]c12 [Example 107]
Ans. no

Qu. Queued: COc1cccc(-c2c(C(=O)O)[nH]c3c(C)cccc23)c1OC [Example 116]
Ans. no

Qu. Queued: CC(C)c1cccc2c(-c3ccc(CNS(C)(=O)=O)cc3)c(C(=O)O)[nH]c12 [Example 96]
Ans. yes

* * *

target: IMP-1 (Imipenemase-1) (Serratia marcescens, UniProt P52699); experiment: Enzyme inhibition assay, IMP-1; format: biochemical; details: read-out: pIC50 IMP-1 (converted)
Listing of recorded IC50 by entry.
Just the number in µM, nothing appended.

# count of solved cases: 4
| chemical_structure | unit_text | reported_result |
| --- | --- | --- |
| Cc1cccc2c(-c3ccc(N4CCOCC4)cc3)c(C(=O)O)[nH]c12 | µM | 10 |
| Cc1c(Oc2ccccc2)ccc2c(-c3ccc(F)cc3)c(C(=O)O)[nH]c12 | µM | 1.58 |
| Cc1cccc2c(-c3cccnc3)c(C(=O)O)[nH]c12 | µM | 12.6 |
| Cc1cccc2c(-c3ccc(C4CC4)cc3)c(C(=O)O)[nH]c12 | µM | 3.98 |

--- query ---
Qu. Value lookup for IC50; key = Cc1cccc2c(-c3ccc(F)cc3)c(C(=O)O)[nH]c12
Ans. 15.8

* * *

target: IMP-1 (Imipenemase-1) (Serratia marcescens, UniProt P52699); assay: Enzyme inhibition assay, IMP-1; format: biochemical; settings: read-out: pIC50 IMP-1 (converted)
Listing of recorded IC50 by entry.
Just the number in nM, nothing appended.

# count of solved cases: 8
| compound | unit_text | IC50 |
| --- | --- | --- |
| Cc1cccc2c(-c3ccc(-c4ccccc4)cc3)c(C(=O)O)[nH]c12 [Example 40] | nM | 1580 |
| CC(C)c1cccc2c(-c3ccc(S(=O)(=O)N4CCOCC4)cc3)c(C(=O)O)[nH]c12 [Example 95] | nM | 24 |
| CC(C)c1cccc2c(-c3ccc(CN(C)C)cc3)c(C(=O)O)[nH]c12 [Example 97] | nM | 437 |
| CC(C)c1cccc2c(-c3ccccc3Cl)c(C(=O)O)[nH]c12 [Example 72] | nM | 2510 |
| Cc1ccccc1-c1c(C(=O)O)[nH]c2c(C)cccc12 [Example 41] | nM | 1580 |
| CN(C)S(=O)(=O)c1ccc(-c2c(C(=O)O)[nH]c3c(C(C)(C)C)cccc23)cc1 [Example 93] | nM | 85.1 |
| Cc1cc(C)c2[nH]c(C(=O)O)c(-c3ccc(F)cc3)c2c1 [Example 59] | nM | 25100 |
| CC(C)c1cccc2c(-c3ccc(N4CCOCC4)nc3)c(C(=O)O)[nH]c12 [Example 98] | nM | 219 |

Qu. Value lookup for IC50; key = Cc1cccc2c(-c3ccc(C(N)=O)cc3)c(C(=O)O)[nH]c12 [Example 5]
Ans. 7940

The measured values listed here are drawn from patent US11439622B2.
